# System: IGROV1 ovarian
# method description: NCI-60 one-dose screen, 48 h
# condition notes: 10 µM unless noted
Compounds without any hit were thinned out: in the full panel of roughly 83,000, 20% have a hit. Calls of active or inactive are those of the source. How the source made its calls: active means growth percent below 10; inactive means the rest.
Write down one outcome, taken from active, inactive

>>> assigned_class("CCN(CC)C(=O)C1(C)CCCC2(C)c3cc(OC(C)=O)ccc3CCC12 (stereo unspecified)")
"inactive"
>>> assigned_class("O=C1C=C(OCC=C(C(F)(F)F)C(F)(F)F)c2ccccc2C1=O")
"active"
>>> assigned_class("O=S(=O)(O)CCI")
"inactive"
>>> assigned_class("CCCCS(=O)(=O)c1cc(Nc2ccc(O)c3c2C(=O)c2ccccc2C3=O)ccc1C")
"inactive"
>>> assigned_class("CC(C)(C)c1cc(C[P+](c2ccc(Cl)cc2)(c2ccc(Cl)cc2)c2ccc(Cl)cc2)cc(C(C)(C)C)c1O")
"inactive"

Just curious, what result did CCC(C)CC(N)O (stereo unspecified) get here?
inactive

Just curious, what result did COc1cccc(CNC(=O)c2cccc(C3CC(=O)c4c(cc(OC)c(OC)c4OC)O3)c2)c1 (stereo unspecified) get here?
inactive

Just curious, what result did CCCC[N+](C)(N)CCCC get here?
inactive

Just curious, what result did COc1cc(Cn2ccc3c2-c2oncc2CC3)cc(OC)c1 get here?
inactive

Just curious, what result did Cc1nc(NC(=S)Nc2ccc(F)cc2)sc1C(=O)NNC(=S)Nc1ccc(F)cc1 get here?
inactive

Just curious, what result did CCCCCCC(=O)C(C)C get here?
inactive

Just curious, what result did COc1ccc(/C=C(/C(=O)N2CCN(c3ccc(C)cc3)CC2)c2cc(OC)c(OC)c(OC)c2)cc1N get here?
inactive

Just curious, what result did CCCCN(CCC)CCCCCCCCCCN1CCCc2ccccc21 get here?
inactive

Just curious, what result did O=C1CCNC1 get here?
inactive

Just curious, what result did COc1ccc(Cn2cc3c(c2-c2ccc(O)cc2)CCc2cnoc2-3)cc1 get here?
inactive

Just curious, what result did Nc1nc2c(c3cnccc13)C(c1cccc(Br)c1)Cc1cnccc1-2 (stereo unspecified) get here?
inactive

Just curious, what result did Cc1nnc(/N=C2\NC(=O)/C(=C/C=C/c3ccccc3)S2)s1 get here?
inactive

Just curious, what result did COc1ccc(-c2nnc(SCC(=O)Nc3ccc(C(=O)/C=C/c4cc(OC)c(OC)c(OC)c4)cc3)n2-c2ccccc2)cc1OC get here?
active

Just curious, what result did NCCCOc1cc(Cl)ccc1NC(=O)c1cc2ccccc2cc1OCCCN get here?
active

Just curious, what result did OCCN1CCN(CC/C=C2/c3ccccc3Sc3ccc(C(F)(F)F)cc32)CC1 get here?
inactive

Just curious, what result did COCC(=O)NNc1[nH]c(-c2ccc(OC)cc2)cc1C#N get here?
inactive

###

# System: SNB-19 CNS
# method description: NCI-60 one-dose screen, 48 h (100 = growth as untreated, 0 = no growth, -100 = all killed)
# condition notes: 10 µM unless noted
This is part of a sample that, as a whole, favours compounds with a hit. Of some 83,000 tested, about 20% had one in any assay.
The following molecules are shown together with reported growth values.
Only the number, expressed in %, is required.

Solved entries (count: 5):
>>> reported_value("CCC(C)(C)c1ccc(OCCCCCCN2CCNCC2)cc1")
68.6
>>> reported_value("O=C(/C=C/c1ccc(Cl)cc1)c1ccc(Cl)cc1")
102
>>> reported_value("CCOC(=O)NNc1[nH]c(-c2ccc(OC)cc2)cc1C#N")
98.6
>>> reported_value("CCCOC(=O)c1c(C)n(C)c2scc[n+]12")
88
>>> reported_value("COC(=O)C(N)CC(C)C (configuration not stated)")
100

Which growth reading was recorded for the molecule CN1CCN(Cc2ccc(NC(=O)c3cncc(C#Cc4c(N)ncc5ccc(F)cc45)c3)cc2C(F)(F)F)CC1 ?
74.3

Which growth reading was recorded for the molecule N=C(N)c1ccc(-c2ccc(-c3ccc(Cl)cc3)s2)s1 ?
-81.8

Which growth reading was recorded for the molecule COC1=C(OC)C(=O)c2ccccc2C1=O ?
102

Which growth reading was recorded for the molecule CCOC(=O)c1c(C)oc2ncnc(Nc3ccc(NC(=O)Nc4cccc(Cl)c4)cc3)c12 ?
84.7
